Exercise: for every item that follows, state its recorded inhibition at 0.1 µM.
Target: AR protein (Homo sapiens, UniProt P10275, T878A)
Construct: degradation activity of the compounds disclosed in the present disclosure on AR protein in LNCaP cells; host or cells: LNCaP FGC
Sequence (P10275 whole entry T878A): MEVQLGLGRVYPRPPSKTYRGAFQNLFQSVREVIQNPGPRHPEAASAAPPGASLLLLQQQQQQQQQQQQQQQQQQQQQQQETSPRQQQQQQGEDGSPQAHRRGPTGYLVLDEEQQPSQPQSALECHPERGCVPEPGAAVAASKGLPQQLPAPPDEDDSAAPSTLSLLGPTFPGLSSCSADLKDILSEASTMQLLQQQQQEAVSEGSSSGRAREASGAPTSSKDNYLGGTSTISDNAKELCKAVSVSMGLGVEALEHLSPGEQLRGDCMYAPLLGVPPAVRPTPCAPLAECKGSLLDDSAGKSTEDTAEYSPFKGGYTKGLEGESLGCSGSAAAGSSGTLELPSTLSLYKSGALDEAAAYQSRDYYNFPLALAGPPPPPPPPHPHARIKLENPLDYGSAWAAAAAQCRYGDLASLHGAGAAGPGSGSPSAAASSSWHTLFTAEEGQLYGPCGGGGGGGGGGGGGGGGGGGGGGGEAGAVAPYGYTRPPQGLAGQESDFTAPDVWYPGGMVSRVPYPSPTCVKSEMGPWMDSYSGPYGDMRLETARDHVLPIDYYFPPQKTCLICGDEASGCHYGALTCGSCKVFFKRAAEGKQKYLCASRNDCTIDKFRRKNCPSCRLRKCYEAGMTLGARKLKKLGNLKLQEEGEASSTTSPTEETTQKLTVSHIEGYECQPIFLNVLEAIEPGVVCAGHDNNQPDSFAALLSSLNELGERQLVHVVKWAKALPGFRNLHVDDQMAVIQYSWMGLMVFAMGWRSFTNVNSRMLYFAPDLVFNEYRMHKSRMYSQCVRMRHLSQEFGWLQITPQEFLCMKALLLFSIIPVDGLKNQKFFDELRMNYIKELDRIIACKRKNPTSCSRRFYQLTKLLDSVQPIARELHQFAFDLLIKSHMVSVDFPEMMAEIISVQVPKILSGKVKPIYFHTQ
Assay: Degradation of AR protein in LNCaP cells (Western blot)
Assay type: cell-based
Conditions: LNCaP cells, compound 100 nM, 8 hours, Western blot grayscale, GAPDH internal reference; read-out: Degradation rates of the AR protein in LNCaP cells, 100 nM (%)
Protocol: The degradation activity of the compounds disclosed in the present disclosure on AR protein in LNCaP cells (cell source: ATCC) Corresponding solvent controls were also set and cultured for 8 hours. After 8 hours of cultivation, the culture medium was removed and the cells were washed with PBS. […] The protein concentration in the extract was detected by BCA method. […] Bands were analyzed in grayscale using Image Studio software. For each sample, GAPDH protein bands were detected as internal reference. […]
Show the value, then the unit it is measured in.

{"compound": "N#Cc1ccc(O[C@H]2CC[C@H](NC(=O)c3ccc(N4CCC5(CCC(N6CCC7(CCc8ccc9c(c8O7)CN(C7CCC(=O)NC7=O)C9=O)CC6)CC5)CC4)nn3)CC2)cc1Cl (some centres unmarked) [Compound 150]", "inhibition at 0.1 µM": "35%"}
{"compound": "CC1(C)[C@H](NC(=O)c2ccc(N3CCC(F)(CN4CCC5(CC4)COc4c5ccc5c4CN(C4CCC(=O)NC4=O)C5=O)CC3)nn2)C(C)(C)[C@H]1Oc1ccc(C#N)c(C(F)(F)F)c1 (some centres unmarked) [Compound 237]", "inhibition at 0.1 µM": "39%"}
{"compound": "N#Cc1ccc(OC2CCC(NC(=O)c3ccc(N4CC5(CC(N6CCC7(CC6)COc6cc8c(cc6C7)C(=O)N(C6CCC(=O)NC6=O)C8=O)C5)C4)nn3)CC2)cc1Cl (centres unmarked) [Compound 66]", "inhibition at 0.1 µM": "74%"}
{"compound": "N#Cc1ccc(O[C@H]2CC[C@H](NC(=O)c3ccc(N4CCC(CN5CCC6(CC5)COc5cc7c(cc5O6)CN(C5CCC(=O)NC5=O)C7=O)CC4)nn3)CC2)cc1Cl (some centres unmarked) [Compound 76]", "inhibition at 0.1 µM": "74%"}
{"compound": "N#Cc1ccc(O[C@H]2CC[C@H](NC(=O)c3ccc(N4CCC5(CCC(N6CCC7(CC6)COc6ccc8c(c6C7)C(=O)N(C6CCC(=O)NC6=O)C8)CC5)CC4)nn3)CC2)cc1Cl (some centres unmarked) [Compound 149]", "inhibition at 0.1 µM": "1%"}
{"compound": "COC1(CN2CCC3(CCc4ccc5c(c4O3)CN(C3CCC(=O)NC3=O)C5=O)CC2)CCN(c2ccc(C(=O)N[C@H]3CC[C@H](Oc4ccc(C#N)c(Cl)c4)CC3)nn2)CC1 (some centres unmarked) [Compound 167]", "inhibition at 0.1 µM": "18%"}
{"compound": "N#Cc1ccc(O[C@H]2CC[C@H](NC(=O)c3ccc(N4CC5(CCC(N6CCC7(CC6)COc6cc8c(cc67)C(=O)N(C6CCC(=O)NC6=O)C8=O)CC5)C4)nn3)CC2)cc1Cl (some centres unmarked) [Compound 53]", "inhibition at 0.1 µM": "85%"}
{"compound": "N#Cc1ccc(O[C@H]2CC[C@H](NC(=O)c3ccc(N4CC5(CCC(N6CCC7(CC6)COc6c7ccc7c6CN(C6CCC(=O)NC6=O)C7=O)CC5)C4)nn3)CC2)cc1Cl (some centres unmarked) [Compound 168]", "inhibition at 0.1 µM": "26%"}
{"compound": "N#Cc1ccc(O[C@H]2CC[C@H](NC(=O)c3ccc(N4CCN(C5CCC6(CCc7cc8c(cc7O6)C(=O)N(C6CCC(=O)NC6=O)C8=O)CC5)CC4)nn3)CC2)cc1Cl (some centres unmarked) [Compound 29]", "inhibition at 0.1 µM": "63%"}
{"compound": "N#Cc1ccc(O[C@H]2CC[C@H](NC(=O)c3ccc(C#CC4CCC(N5CCC6(CC5)COc5c6ccc6c5CN(C5CCC(=O)NC5=O)C6=O)CC4)nc3)CC2)cc1Cl (some centres unmarked) [Compound 235]", "inhibition at 0.1 µM": "36%"}

Hi! Can you tell me inhibition at 0.1 µM for each of these compounds?
1. COc1cc(O[C@H]2C(C)(C)[C@H](NC(=O)c3ccc(N4CCC(C)(CN5CCC6(CCc7ccc8c(c7O6)CN(C6CCC(=O)NC6=O)C8=O)CC5)CC4)cc3)C2(C)C)ccc1C#N (some centres unmarked) [Compound 283]
2. N#Cc1ccc(O[C@H]2CC[C@H](NC(=O)c3ccc(N4CCC5(CC4)COc4cc6c(cc4C5)C(=O)N(C4CCC(=O)NC4=O)C6=O)nn3)CC2)cc1Cl (some centres unmarked) [Compound 60]

Result:
66%
64%

Hi! Can you tell me inhibition at 0.1 µM for each of these compounds?
1. COc1cc(O[C@H]2C(C)(C)[C@H](NC(=O)c3ccc(N4CCC(C#N)(CN5CCC6(CC5)COc5c6ccc6c5CN(C5CCC(=O)NC5=O)C6=O)CC4)nn3)C2(C)C)ccc1C#N (some centres unmarked) [Compound 224]
2. N#Cc1ccc(O[C@H]2CC[C@H](NC(=O)c3ccc(N4CCC(N5CCC6(CCc7cc8c(cc7O6)C(=O)N(C6CCC(=O)NC6=O)C8=O)CC5)C(F)(F)C4)nn3)CC2)cc1Cl (some centres unmarked) [Compound 27]
3. CCC1(CN2CCC3(CC2)COc2c3ccc3c2C(=O)N(C2CCC(=O)NC2=O)C3=O)CCN(c2ccc(C(=O)N[C@H]3C(C)(C)[C@H](Oc4ccc(C#N)c(OC)c4)C3(C)C)cc2)CC1 (some centres unmarked) [Compound 286]
4. N#Cc1ccc(O[C@H]2CC[C@H](NC(=O)c3ccc(N4CC(N5CCC6(CC5)COc5c6ccc6c5C(=O)N(C5CCC(=O)NC5=O)C6=O)C4)nn3)CC2)cc1Cl (some centres unmarked) [Compound 142]
5. N#Cc1ccc(O[C@H]2CC[C@H](NC(=O)c3ccc(N4CCN(C(=O)CN5CCC6(CC5)COc5c6ccc6c5CN(C5CCC(=O)NC5=O)C6=O)CC4)nn3)CC2)cc1Cl (some centres unmarked) [Compound 233]

Result:
1: 52%; 2: 39%; 3: 34%; 4: 52%; 5: 62%

Hi! Can you tell me inhibition at 0.1 µM for each of these compounds?
1. CC1(C)[C@H](NC(=O)c2ccc(N3CCC(CN4CCC5(CC4)COc4c5ccc5c4CN(C4CCC(=O)NC4=O)C5=O)CC3)nn2)C(C)(C)[C@H]1Oc1ccc(C#N)c(Cl)c1 (some centres unmarked) [Compound 210]
2. N#Cc1ccc(O[C@H]2CC[C@H](NC(=O)c3ccc(N4CCC(CN5CCC6(CCc7cc8c(cc7O6)C(=O)N(C6CCC(=O)NC6=O)C8)CC5)CC4)nn3)CC2)cc1Cl (some centres unmarked) [Compound 44]
3. N#Cc1ccc(O[C@H]2CC[C@H](NC(=O)c3ccc(N4CCC5(CC(N6CCC7(CCc8cc9c(cc8O7)C(=O)N(C7CCC(=O)NC7=O)C9=O)CC6)C5)C4)nn3)CC2)cc1Cl (some centres unmarked) [Compound 35]

Result:
1. 59%
2. 84%
3. 50%
